System: Saccharomyces cerevisiae;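 also: PSI is a weighted mean of sequencing reads over stability bins, variants kept only with over 10 reads, mCherry proximal and sfGFP distal, peptide attached via GGGS linker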
protocol-notes: protein stability index of tFT-peptide fusion (C-terminal peptide) (PSI (0-1 scale)); higher = more stable (slower turnover)
condition-details: genetic background: cdc34-1; temperature: 37 C
Short version: protein stability index at least 0.5 is Satisfied, less is Not satisfied.

hey, is protein stability index for this one >= 0.5? GWLRHGWWRTVG
Satisfied

hey, is protein stability index for this one >= 0.5? YPSASLLPLFSC
Satisfied

hey, is protein stability index for this one >= 0.5? FGVECDLCLFCC
Satisfied

hey, is protein stability index for this one >= 0.5? GGFRVLLWCVVW
Not satisfied

hey, is protein stability index for this one >= 0.5? SLIDPLGNLFNS
Satisfied

hey, is protein stability index for this one >= 0.5? YLFDQYDWYKSM
Satisfied

hey, is protein stability index for this one >= 0.5? GPWVIFSHLLLT
Not satisfied

hey, is protein stability index for this one >= 0.5? VARRRQQWMRGS
Satisfied

hey, is protein stability index for this one >= 0.5? VFFRVLVAGCRQ
Satisfied

hey, is protein stability index for this one >= 0.5? YHFRLLVTCCPC
Not satisfied

hey, is protein stability index for this one >= 0.5? LRLFIFLLFSVF
Not satisfied

hey, is protein stability index for this one >= 0.5? GLAVLSWLYIEL
Satisfied

hey, is protein stability index for this one >= 0.5? RFHFAAPPHRPS
Satisfied

hey, is protein stability index for this one >= 0.5? YRWERIYIGLRL
Not satisfied

hey, is protein stability index for this one >= 0.5? LIPFPGFFILLT
Not satisfied

hey, is protein stability index for this one >= 0.5? TRPHPLRRVFIF
Satisfied

hey, is protein stability index for this one >= 0.5? HCSRMIIIFLFL
Not satisfied

hey, is protein stability index for this one >= 0.5? RHIRGLNLIKLI
Not satisfied

hey, is protein stability index for this one >= 0.5? YFRKDYRKMAQH
Satisfied

hey, is protein stability index for this one >= 0.5? HYTSFAVPPLVY
Satisfied

hey, is protein stability index for this one >= 0.5? IIPAFPFAFLAF
Satisfied

hey, is protein stability index for this one >= 0.5? LGKSTLYMALNN
Satisfied

hey, is protein stability index for this one >= 0.5? GYLVFTLRWLRG
Not satisfied

hey, is protein stability index for this one >= 0.5? SPTRTCTAIRTP
Satisfied

hey, is protein stability index for this one >= 0.5? RVITRMLLMVIR
Not satisfied

hey, is protein stability index for this one >= 0.5? PILRGRPTPAIL
Satisfied

hey, is protein stability index for this one >= 0.5? GAVVYGICFCTN
Satisfied

hey, is protein stability index for this one >= 0.5? HLYITGIIRKIT
Satisfied

hey, is protein stability index for this one >= 0.5? FFGVFIFPVSCR
Not satisfied

hey, is protein stability index for this one >= 0.5? VVVLLLVVWFCL
Not satisfied

hey, is protein stability index for this one >= 0.5? RFRFRRTCLYAT
Satisfied

hey, is protein stability index for this one >= 0.5? YFLFRYIVITVF
Not satisfied

hey, is protein stability index for this one >= 0.5? SVRGGSFLVHLC
Satisfied

hey, is protein stability index for this one >= 0.5? GAFAGDVWRCVV
Satisfied

hey, is protein stability index for this one >= 0.5? TPLLPPSPPPSR
Satisfied

hey, is protein stability index for this one >= 0.5? VRINLLFVWFSR
Not satisfied

hey, is protein stability index for this one >= 0.5? RISYKTKINELI
Satisfied

hey, is protein stability index for this one >= 0.5? TLVFPRFLFLVV
Not satisfied

hey, is protein stability index for this one >= 0.5? SPCSNFLECLSF
Satisfied

hey, is protein stability index for this one >= 0.5? PRPSPPLPPPSS
Satisfied

hey, is protein stability index for this one >= 0.5? LCVFFRCFFVGG
Satisfied

hey, is protein stability index for this one >= 0.5? RLDAPGLSRTEN
Satisfied

hey, is protein stability index for this one >= 0.5? CREFLQSMLFYC
Satisfied

hey, is protein stability index for this one >= 0.5? CILVSVDVIVFF
Not satisfied

hey, is protein stability index for this one >= 0.5? GFCFVFVFQCFF
Not satisfied

hey, is protein stability index for this one >= 0.5? YLMVSKMSLRIG
Satisfied

hey, is protein stability index for this one >= 0.5? YPGMFLQLVWWI
Not satisfied

hey, is protein stability index for this one >= 0.5? SRVSEFVIPLGR
Satisfied

hey, is protein stability index for this one >= 0.5? APEWGGGDEWWG
Satisfied

hey, is protein stability index for this one >= 0.5? DALHPCIIYLTC
Satisfied

hey, is protein stability index for this one >= 0.5? VCMVLCRWRGLG
Satisfied

hey, is protein stability index for this one >= 0.5? RTKIKKKIMKNI
Satisfied

hey, is protein stability index for this one >= 0.5? VRYCFFWVRAVV
Not satisfied

hey, is protein stability index for this one >= 0.5? RGWWWFVVVLCR
Not satisfied

hey, is protein stability index for this one >= 0.5? PPPYPPPPARSL
Satisfied

hey, is protein stability index for this one >= 0.5? SVLALLWVGCWL
Not satisfied

hey, is protein stability index for this one >= 0.5? GRVYLLGLYMSF
Not satisfied

hey, is protein stability index for this one >= 0.5? INGINHKIIKIV
Not satisfied

hey, is protein stability index for this one >= 0.5? SPSRAGQHLYYP
Satisfied

hey, is protein stability index for this one >= 0.5? WSLRFRRMMLRC
Not satisfied

hey, is protein stability index for this one >= 0.5? VMIFYVLGRVWD
Not satisfied

hey, is protein stability index for this one >= 0.5? PFYQSGGLVVVV
Satisfied

hey, is protein stability index for this one >= 0.5? RPRVAGLMTLVS
Satisfied

hey, is protein stability index for this one >= 0.5? ERWSPWIVVFTN
Not satisfied
